# Target Desc: KRAS G12V (Homo sapiens (Human), UniProt P01116+P62937, G12V)
# Sequence (P01116-2 other isoform, or with tags, fused parts or gaps G12V): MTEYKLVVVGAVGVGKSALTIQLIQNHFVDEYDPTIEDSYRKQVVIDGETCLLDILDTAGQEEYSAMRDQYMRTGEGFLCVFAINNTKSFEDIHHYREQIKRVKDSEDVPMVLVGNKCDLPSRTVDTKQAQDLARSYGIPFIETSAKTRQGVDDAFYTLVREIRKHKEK
# Sequence (P62937 whole entry): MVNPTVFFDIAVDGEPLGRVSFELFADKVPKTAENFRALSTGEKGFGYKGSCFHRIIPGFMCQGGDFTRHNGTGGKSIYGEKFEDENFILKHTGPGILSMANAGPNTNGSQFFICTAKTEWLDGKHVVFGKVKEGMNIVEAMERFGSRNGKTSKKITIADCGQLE
# Test Description: Ras-Raf (BRAF RBD) disruption / FRET / MOA assay, KRAS G12V
# Assay type: biochemical
# Experimental Parameters: read-out: IC50* KRAS G12V FRET data
pIC50: −log10 of the molar value.
Would you mind telling me the reported pIC50 of each entry?

{"Compound": "CCn1c(-c2cccnc2COC)c2c3cc(ccc31)-c1cc(O)cc(c1)C[C@H](NC(=O)[C@H](C(C)C)N(C)C(=O)[C@H]1CCN(C(=O)C#CC3(N(C)C)CC3)C1)C(=O)N1CCC[C@H](N1)C(=O)OCC(C)(C)C2", "Measured Attribute": "pIC50", "Value": "6.00 to 7.00"}

Please give pIC50 for each item listed below.
1. C=CC(=O)N1CCN(C(=O)N(C)[C@H](C(=O)N[C@H]2Cc3nc(cs3)-c3ccc4c(c3)c(c(-c3cccnc3[C@H](C)OC)n4CC)CC(C)(C)COC(=O)[C@@H]3CCCN(N3)C2=O)C(C)C)CC1 (atropisomer, axis not shown)
2. C=CC(=O)N1CCN(C(=O)N(C)[C@H](C(=O)N[C@H]2Cc3nc(cs3)-c3ccc4c(c3)c(c(-c3cccnc3[C@H](C)OC)n4CC)CC(C)(C)COC(=O)[C@@H]3CCCN(N3)C2=O)C(C)C)[C@H]2C[C@H]21 (atropisomer, axis not shown)
3. C=CC(=O)N1CC[C@H](C(=O)N(C)[C@H](C(=O)N[C@H]2Cc3cccc(c3)-c3ccc4c(c3)c(c(-c3cnn(C5CCN(C)CC5)c3[C@H](C)OC)n4CC)CC(C)(C)COC(=O)[C@@H]3CCCN(N3)C2=O)C(C)C)C1

### Response
["7.00 to 8.00", "6.00 to 7.00", "< 5.00"]
